test: Plasma stability of payloads (t½)
Where a SMILES comes first, the peptide text is derived from it. [ ]: non-standard residue; d: D form. The star is where a group is joined. Bip(2'-Et,4'-O(CH2)4NH2) = CCc1cc(OCCCCN)ccc1-c1ccc(C[C@H](N)C(=O)O)cc1; Nva(5-(3,5-Me2Ph)) = Cc1cc(C)cc(CCC[C@H](N)C(=O)O)c1; Ala(1H-tetrazol-5-yl) = N[C@@H](Cc1nnn[nH]1)C(=O)O; αMePhe(2-F) = C[C@](N)(Cc1ccccc1F)C(=O)O; X2 = CC(C)(C(N)=O)C(=O)*; X4 = CC(C)(C(=O)O)C(=O)*
The following compounds are shown together with reported Plasma stability t½ values.

compound	reported-property	measurement
CCc1cc(OCCCCN)ccc1-c1ccc(C[C@H](NC(=O)[C@H](CC(=O)O)NC(=O)[C@H](CO)NC(=O)[C@@H](NC(=O)[C@](C)(Cc2ccccc2F)NC(=O)[C@@H](NC(=O)CNC(=O)[C@H](Cc2nn[nH]n2)NC(=O)C(C)(C)C(=O)O)[C@@H](C)O)[C@@H](C)O)C(=O)N[C@@H](CCCc2cc(C)cc(C)c2)C(N)=O)cc1 [P3] (X4-[Ala(1H-tetrazol-5-yl)]GT[αMePhe(2-F)]TSD[Bip(2'-Et,4'-O(CH2)4NH2)][Nva(5-(3,5-Me2Ph))]-NH2)	Plasma stability t½	>57.8 h
CCc1cc(OCCCCN)ccc1-c1ccc(C[C@H](NC(=O)[C@H](CC(=O)O)NC(=O)[C@H](CO)NC(=O)[C@@H](NC(=O)[C@](C)(Cc2ccccc2F)NC(=O)[C@@H](NC(=O)CNC(=O)[C@H](CCC(N)=O)NC(=O)C(C)(C)C(=O)NCCc2cnc[nH]2)[C@@H](C)O)[C@@H](C)O)C(=O)N[C@@H](CCCc2cc(C)cc(C)c2)C(N)=O)cc1	Plasma stability t½	>57.8 h
CCc1cc(OCCCCN)ccc1-c1ccc(C[C@H](NC(=O)[C@H](CC(=O)O)NC(=O)[C@H](CO)NC(=O)[C@@H](NC(=O)[C@](C)(Cc2ccccc2F)NC(=O)[C@@H](NC(=O)CNC(=O)[C@@H](N)Cc2nn[nH]n2)[C@@H](C)O)[C@@H](C)O)C(=O)N[C@@H](CCCc2cc(C)cc(C)c2)C(N)=O)cc1 [P2]	Plasma stability t½	10.7 h

Moving on to the next compound.
QUERY: Plasma stability t½ lookup needed for CCc1cc(OCCCCN)ccc1-c1ccc(C[C@H](NC(=O)[C@H](CC(=O)O)NC(=O)[C@H](CO)NC(=O)[C@@H](NC(=O)[C@](C)(Cc2ccccc2F)NC(=O)[C@@H](NC(=O)CNC(=O)[C@H](Cc2nn[nH]n2)NC(=O)C(C)(C)C(N)=O)[C@@H](C)O)[C@@H](C)O)C(=O)N[C@@H](CCCc2cc(C)cc(C)c2)C(N)=O)cc1 [P4] (X2-[Ala(1H-tetrazol-5-yl)]GT[αMePhe(2-F)]TSD[Bip(2'-Et,4'-O(CH2)4NH2)][Nva(5-(3,5-Me2Ph))]-NH2) , thanks.
RESULT: >57.8 h

----------
EC50 values by entry
biological target: human GLP1R (Homo sapiens, UniProt P43220); assay: Human GLP1R cAMP accumulation assay; format: cell-based; design: HEK293 cells over-expressing full length human GLP-1R were utilized; expressed in transfected cells; host or cells: HEK293 (HEK293/hGLP1R); settings: HEK293/hGLP1R cells; Table 4; read-out: cAMP EC50
Sequence (P43220 24-463): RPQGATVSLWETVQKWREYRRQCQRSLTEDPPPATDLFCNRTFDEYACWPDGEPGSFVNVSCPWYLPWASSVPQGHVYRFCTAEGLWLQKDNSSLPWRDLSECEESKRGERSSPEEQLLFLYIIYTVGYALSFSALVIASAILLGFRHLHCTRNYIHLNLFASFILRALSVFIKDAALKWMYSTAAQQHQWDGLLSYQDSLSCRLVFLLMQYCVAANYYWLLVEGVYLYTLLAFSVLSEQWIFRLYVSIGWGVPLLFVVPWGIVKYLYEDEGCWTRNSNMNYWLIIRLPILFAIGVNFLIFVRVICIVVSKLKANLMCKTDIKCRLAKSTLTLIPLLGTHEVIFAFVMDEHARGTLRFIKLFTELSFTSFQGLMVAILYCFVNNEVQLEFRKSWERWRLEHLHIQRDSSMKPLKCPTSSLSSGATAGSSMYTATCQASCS
Where a SMILES comes first, the peptide text is derived from it. [ ]: non-standard residue; d: D form. The star is where a group is joined. Bip(2'-Et,4'-O(CH2)4NH2) = CCc1cc(OCCCCN)ccc1-c1ccc(C[C@H](N)C(=O)O)cc1; Nva(5-(3,5-Me2Ph)) = Cc1cc(C)cc(CCC[C@H](N)C(=O)O)c1; Ala(1H-tetrazol-5-yl) = N[C@@H](Cc1nnn[nH]1)C(=O)O; αMePhe(2-F) = C[C@](N)(Cc1ccccc1F)C(=O)O; X2 = CC(C)(C(N)=O)C(=O)*
Numbers only here, please. The scale is nM.

compound	EC50 [nM]
CCc1cc(OCCCCN)ccc1-c1ccc(C[C@H](NC(=O)[C@H](CC(=O)O)NC(=O)[C@H](CO)NC(=O)[C@@H](NC(=O)[C@](C)(Cc2ccccc2F)NC(=O)[C@@H](NC(=O)CNC(=O)[C@H](Cc2nn[nH]n2)NC(=O)[C@H](C)NC(=O)[C@H](Cc2c[nH]cn2)NC(=O)[C@@H](N)CCC(N)=O)[C@@H](C)O)[C@@H](C)O)C(=O)N[C@@H](CCCc2cc(C)cc(C)c2)C(N)=O)cc1 [P13] (H-QHA[Ala(1H-tetrazol-5-yl)]GT[αMePhe(2-F)]TSD[Bip(2'-Et,4'-O(CH2)4NH2)][Nva(5-(3,5-Me2Ph))]-NH2)	0.914

QUERY: If you can, please state the reported EC50 value of CCc1cc(OCCCCN)ccc1-c1ccc(C[C@H](NC(=O)[C@H](CC(=O)O)NC(=O)[C@H](CO)NC(=O)[C@@H](NC(=O)[C@](C)(Cc2ccccc2F)NC(=O)[C@@H](NC(=O)CNC(=O)[C@H](Cc2nn[nH]n2)NC(=O)C(C)(C)C(N)=O)[C@@H](C)O)[C@@H](C)O)C(=O)N[C@@H](CCCc2cc(C)cc(C)c2)C(N)=O)cc1 [P4] (X2-[Ala(1H-tetrazol-5-yl)]GT[αMePhe(2-F)]TSD[Bip(2'-Et,4'-O(CH2)4NH2)][Nva(5-(3,5-Me2Ph))]-NH2) .
RESULT: 0.156

----------
molecular target: human GLP1R (Homo sapiens, UniProt P43220); assay: Luciferase reporter assay, HEK293/CRE-Luc/hGLP1R cells (Example 11); assay type: cell-based; set-up: engineered to express full-length human GLP1R, cynomolgus GLP1R; expressed in transfected cells; host or cells: HEK293/CRE-Luc; settings: Table 11; Experiment A
Where a SMILES comes first, the peptide text is derived from it. [ ]: non-standard residue; d: D form. The star is where a group is joined. Bip(2'-Et,4'-O(CH2)4N3) = CCc1cc(OCCCCN=[N+]=[N-])ccc1-c1ccc(C[C@H](N)C(=O)O)cc1; Bip(2'-Et,4'-O(CH2)4NH2) = CCc1cc(OCCCCN)ccc1-c1ccc(C[C@H](N)C(=O)O)cc1; Malonyl(2,2-Me2,histaminyl) = CC(C)(C(=O)NCCc1cnc[nH]1)C(=O)*; Nva(5-(3,5-Me2Ph)) = Cc1cc(C)cc(CCC[C@H](N)C(=O)O)c1; Ala(1H-tetrazol-5-yl) = N[C@@H](Cc1nnn[nH]1)C(=O)O; αMePhe(2-F) = C[C@](N)(Cc1ccccc1F)C(=O)O; Desaminohistidyl = O=C(CCc1c[nH]cn1)*; X2 = CC(C)(C(N)=O)C(=O)*; X4 = CC(C)(C(=O)O)C(=O)*
reported-property: HEK293/CRE-LUC/hGLP1R Relative Potency (% P8 EC50) (%)
Give the quantity in %, number only.

Here is how some compounds turned out for HEK293/CRE-LUC/hGLP1R Relative Potency (% P8 EC50).
compound	measurement
CCc1cc(OCCCCN)ccc1-c1ccc(C[C@H](NC(=O)[C@H](CC(=O)O)NC(=O)[C@H](CO)NC(=O)[C@@H](NC(=O)[C@](C)(Cc2ccccc2F)NC(=O)[C@@H](NC(=O)CNC(=O)[C@H](Cc2nn[nH]n2)NC(=O)[C@H](C)NC(=O)[C@H](Cc2c[nH]cn2)NC(=O)[C@@H](N)CCC(N)=O)[C@@H](C)O)[C@@H](C)O)C(=O)N[C@@H](CCCc2cc(C)cc(C)c2)C(N)=O)cc1 [P13] (H-QHA[Ala(1H-tetrazol-5-yl)]GT[αMePhe(2-F)]TSD[Bip(2'-Et,4'-O(CH2)4NH2)][Nva(5-(3,5-Me2Ph))]-NH2)	1.5
CCc1cc(OCCCCN)ccc1-c1ccc(C[C@H](NC(=O)[C@H](CC(=O)O)NC(=O)[C@H](CO)NC(=O)[C@@H](NC(=O)[C@](C)(Cc2ccccc2F)NC(=O)[C@@H](NC(=O)CNC(=O)[C@H](Cc2nn[nH]n2)NC(=O)CNC(=O)CCc2cnc[nH]2)[C@@H](C)O)[C@@H](C)O)C(=O)N[C@@H](CCCc2cc(C)cc(C)c2)C(N)=O)cc1 [P12] (Desaminohistidyl-G[Ala(1H-tetrazol-5-yl)]GT[αMePhe(2-F)]TSD[Bip(2'-Et,4'-O(CH2)4NH2)][Nva(5-(3,5-Me2Ph))]-NH2)	46.5
CCc1cc(OCCCCN)ccc1-c1ccc(C[C@H](NC(=O)[C@H](CC(=O)O)NC(=O)[C@H](CO)NC(=O)[C@@H](NC(=O)[C@](C)(Cc2ccccc2F)NC(=O)[C@@H](NC(=O)CNC(=O)[C@H](Cc2nn[nH]n2)NC(=O)C(C)(C)C(=O)NCCc2cnc[nH]2)[C@@H](C)O)[C@@H](C)O)C(=O)N[C@@H](CCCc2cc(C)cc(C)c2)C(N)=O)cc1 [P9] ({Malonyl(2,2-Me2,histaminyl)}-[Ala(1H-tetrazol-5-yl)]GT[αMePhe(2-F)]TSD[Bip(2'-Et,4'-O(CH2)4NH2)][Nva(5-(3,5-Me2Ph))]-NH2)	133.8
CCc1cc(OCCCCN=[N+]=[N-])ccc1-c1ccc(C[C@H](NC(=O)[C@H](CC(=O)O)NC(=O)[C@H](CO)NC(=O)[C@@H](NC(=O)[C@](C)(Cc2ccccc2F)NC(=O)[C@@H](NC(=O)CNC(=O)[C@H](Cc2nn[nH]n2)NC(=O)C(C)(C)C(=O)NCCc2cnc[nH]2)[C@@H](C)O)[C@@H](C)O)C(=O)N[C@@H](CCCc2cc(C)cc(C)c2)C(N)=O)cc1 [P8] ({Malonyl(2,2-Me2,histaminyl)}-[Ala(1H-tetrazol-5-yl)]GT[αMePhe(2-F)]TSD[Bip(2'-Et,4'-O(CH2)4N3)][Nva(5-(3,5-Me2Ph))]-NH2)	100.0
CCc1cc(OCCCCN)ccc1-c1ccc(C[C@H](NC(=O)[C@H](CC(=O)O)NC(=O)[C@H](CO)NC(=O)[C@@H](NC(=O)[C@](C)(Cc2ccccc2F)NC(=O)[C@@H](NC(=O)CNC(=O)[C@H](Cc2nn[nH]n2)NC(=O)[C@@]2(C)CCN(CCc3cnc[nH]3)C2=O)[C@@H](C)O)[C@@H](C)O)C(=O)N[C@@H](CCCc2cc(C)cc(C)c2)C(N)=O)cc1 [P15-R]	40.3

QUERY: # lookup: HEK293/CRE-LUC/hGLP1R Relative Potency (% P8 EC50) of CCc1cc(OCCCCN)ccc1-c1ccc(C[C@H](NC(=O)[C@H](CC(=O)O)NC(=O)[C@H](CO)NC(=O)[C@@H](NC(=O)[C@](C)(Cc2ccccc2F)NC(=O)[C@@H](NC(=O)CNC(=O)[C@H](Cc2nn[nH]n2)NC(=O)C(C)(C)C(N)=O)[C@@H](C)O)[C@@H](C)O)C(=O)N[C@@H](CCCc2cc(C)cc(C)c2)C(N)=O)cc1 [P4] (X2-[Ala(1H-tetrazol-5-yl)]GT[αMePhe(2-F)]TSD[Bip(2'-Et,4'-O(CH2)4NH2)][Nva(5-(3,5-Me2Ph))]-NH2)
RESULT: 6.3

QUERY: Param item: CCc1cc(OCCCCN)ccc1-c1ccc(C[C@H](NC(=O)[C@H](CC(=O)O)NC(=O)[C@H](CO)NC(=O)[C@@H](NC(=O)[C@](C)(Cc2ccccc2F)NC(=O)[C@@H](NC(=O)CNC(=O)[C@H](Cc2nn[nH]n2)NC(=O)C(C)(C)C(=O)O)[C@@H](C)O)[C@@H](C)O)C(=O)N[C@@H](CCCc2cc(C)cc(C)c2)C(N)=O)cc1 [P3] (X4-[Ala(1H-tetrazol-5-yl)]GT[αMePhe(2-F)]TSD[Bip(2'-Et,4'-O(CH2)4NH2)][Nva(5-(3,5-Me2Ph))]-NH2)
RESULT: 0.3
